Target: 5-lipoxygenase (Mus musculus)
Construct: The supernatant is used as a 5-lipogenase enzyme solution; endogenous in cells
Test: 5-Lipoxygenase-inhibiting Activity (decrease in 5-HETE and LTB4 formed from radiolabelled arachidonic acid, enzyme solution from mouse mastcytoma cells P-815)
Type: biochemical
IC50 strictly under 60 nM means yes; at 60 nM or over means no.

### Prompt Here's an entry: O=C(/C=C/C=C/c1ccc(O)c(O)c1)N1CCN(CCOC(c2ccccc2)c2ccccc2)CC1 [Example 84] . Is its IC50 below 60 nM?
### Response yes

### Prompt Another compound to look at: COc1ccc(/C=C/C(=O)N2CCN(CCOC(c3ccccc3)c3ccccc3)CC2)cc1OC [Example 76]
### Response no

### Prompt Another compound to look at: COc1cc(/C=C/C=C/C(=O)N2CCN(CCOC(c3ccccc3)c3ccccc3)CC2)cc(OC)c1O [Example 98]
### Response yes

### Prompt Another compound to look at: COc1cc(/C=C/C(=O)N2CCN(CCOC(c3ccccc3)c3ccccc3)CC2)cc(OC)c1O [Example 79]
### Response yes

###

Biological target: 5-lipoxygenase (Mus musculus, UniProt P48999)
Construct: The supernatant is used as a 5-lipogenase enzyme solution; endogenous in cells
Assay: 5-Lipoxygenase-inhibiting Activity (decrease in 5-HETE and LTB4 formed from radiolabelled arachidonic acid, enzyme solution from mouse mastcytoma cells P-815)
Assay type: biochemical
Details: 5-HETE and LTB4 formation; mouse mastcytoma P-815 enzyme solution; 37° C., 5 min; pH 7.4; with indomethacin; read-out: 50% Inhibitory concentration IC50
measurement.kind: IC50 (nM)
Give the value in nM but do not write nM after it.

### Prompt Fill in: IC50 of COc1cc(/C=C/C=C/C(=O)Nc2ccccc2C(=O)O)cc(OC)c1O [Example 57] is ___
### Response 400

### Prompt Another compound to look at: Cn1c(=O)c2c(ncn2CCNC(=O)/C=C/c2ccc(O)c(O)c2)n(C)c1=O [Example 65]
### Response 2000

### Prompt Another compound to look at: COc1cc(/C=C/C=C/C(=O)NCCCCN2CCN(C(c3ccccc3)c3ccc(Cl)cc3)CC2)cc(OC)c1O (stereo not shown) [Example 96]
### Response 20

### Prompt Another compound to look at: CC/C=C\C/C=C\C/C=C\CCCCCCCC(=O)NCCCCNC(=O)/C=C/c1ccc(O)c(OC)c1 [Example 3]
### Response 900

###

Biological target: 5-lipoxygenase (Mus musculus, UniProt P48999)
Construct: The supernatant is used as a 5-lipogenase enzyme solution; endogenous in cells
Experiment: 5-Lipoxygenase-inhibiting Activity (decrease in 5-HETE and LTB4 formed from radiolabelled arachidonic acid, enzyme solution from mouse mastcytoma cells P-815)
Format: biochemical
Details: 5-HETE and LTB4 formation; mouse mastcytoma P-815 enzyme solution; 37° C., 5 min; pH 7.4; with indomethacin; read-out: 50% Inhibitory concentration IC50
Answer each item with its documented IC50.
Give the value in nM but do not write nM after it.

### Prompt Fill in: IC50 of COc1cc(/C=C/C=C/C(=O)N2CCN(CCn3cnc4c3c(=O)n(C)c(=O)n4C)CC2)cc(OC)c1O is ___
### Response 2000

### Prompt Another molecule to look at: COc1cc(/C=C/C=C/C(=O)NCCN2CCN(C(c3ccccc3)c3ccccc3)CC2)cc(OC)c1O
### Response 20

### Prompt Another molecule to look at: O=C(/C=C/c1ccc(O)c(O)c1)NCCCCN1CCN(C(c2ccccc2)c2ccccc2)CC1
### Response 30

### Prompt Another molecule to look at: COc1cc(/C=C/C=C/C(=O)N2CCN(CCCOC(c3ccccc3)c3ccccc3)CC2)cc(OC)c1O
### Response 30

### Prompt Another molecule to look at: COc1ccc(/C=C/C=C/C(=O)NCCN2CCN(C(=O)c3ccccc3N)CC2)cc1OC
### Response 6000

### Prompt Another molecule to look at: COc1cc(/C=C/C=C/C(=O)NCCCCNC(=O)/C=C/C=C/c2ccc(O)c(OC)c2)ccc1O
### Response 100

### Prompt Another molecule to look at: COc1cc(/C=C/C=C/C(=O)N2CCN(CCCOC(c3ccccc3)c3ccccc3)CC2)ccc1O
### Response 60

### Prompt Another molecule to look at: COc1cc(/C=C/C=C/C(=O)N2CCN(CCCn3cnc4c3c(=O)n(C)c(=O)n4C)CC2)cc(OC)c1OC
### Response 20000

### Prompt Another molecule to look at: COc1cc(/C=C/C=C/C(=O)NCc2c(CO)cnc(C)c2O)cc(OC)c1OC
### Response 100000

### Prompt Another molecule to look at: CC/C=C\C/C=C\C/C=C\CCCCCCCC(=O)NCCCCNC(=O)/C=C/C=C/c1ccc(O)c(O)c1
### Response 20

### Prompt Another molecule to look at: COc1cc(/C=C/C(=O)Nc2ccccc2C(=O)O)cc(OC)c1O
### Response 1000

### Prompt Another molecule to look at: COc1ccc(/C=C/C(=O)NCCOC(c2ccccc2)c2ccccc2)cc1OC
### Response 10000

### Prompt Another molecule to look at: COc1cc(/C=C/C(=O)NCCCCN2CCC(OC(c3ccccc3)c3ccccc3)CC2)ccc1O
### Response 200

### Prompt Another molecule to look at: O=C(/C=C/c1ccc(O)c(O)c1)NCCN1CCN(C(c2ccccc2)c2ccccc2)CC1
### Response 100

### Prompt Another molecule to look at: O=C(/C=C/c1ccc(O)c(O)c1)N1CCN(CCOC(c2ccccc2)c2ccccc2)CC1
### Response 30

### Prompt Another molecule to look at: Cc1ccc(C(=O)OCc2cnc(C)c(O)c2CNC(=O)/C=C/C=C/c2ccc(O)c(O)c2)cc1
### Response 80

### Prompt Another molecule to look at: COc1cc(/C=C/C(=O)NCCN2CCN(C(c3ccccc3)c3ccc(Cl)cc3)CC2)cc(OC)c1O (stereo not shown)
### Response 40

### Prompt Another molecule to look at: COc1cc(/C=C/C=C/C(=O)NCCCCN2CCN(C(c3ccccc3)c3ccccc3)CC2)ccc1O
### Response 60

### Prompt Another molecule to look at: COc1cc(/C=C/C=C/C(=O)N2CCN(CCn3cnc4c3c(=O)n(C)c(=O)n4C)CC2)ccc1O
### Response 2000

### Prompt Another molecule to look at: O=C(/C=C/c1ccc(O)c(O)c1)NCCCN1CCC(OC(c2ccccc2)c2ccccc2)CC1
### Response 10

### Prompt Another molecule to look at: COc1cc(/C=C/C(=O)NCCN2CCN(C(=O)c3ccccc3N)CC2)ccc1O
### Response 200000

### Prompt Another molecule to look at: CC/C=C\C/C=C\C/C=C\C/C=C\C/C=C\C/C=C\CCC(=O)NCCCCNC(=O)/C=C/C=C/c1ccc(O)c(O)c1
### Response 40

### Prompt Another molecule to look at: COc1cc(/C=C/C=C/C(=O)NCCCCNC(C)=O)ccc1O
### Response 6000

### Prompt Another molecule to look at: COc1ccc(/C=C/C=C/C(=O)NCCCCN2CCN(C(c3ccccc3)c3ccccc3)CC2)cc1OC
### Response 3000

### Prompt Another molecule to look at: COc1cc(/C=C/C(=O)NCCn2cnc3c2c(=O)n(C)c(=O)n3C)ccc1O
### Response 6000

### Prompt Another molecule to look at: COc1cc(/C=C/C(=O)N2CCN(CCCn3cnc4c3c(=O)n(C)c(=O)n4C)CC2)cc(OC)c1OC
### Response 30000

### Prompt Another molecule to look at: CC/C=C\C/C=C\C/C=C\CCCCCCCC(=O)NCCCCNC(=O)/C=C/C=C/c1ccc(O)c(OC)c1
### Response 200

### Prompt Another molecule to look at: COc1cc(/C=C/C=C/C(=O)NCc2c(CO)cnc(C)c2O)ccc1O
### Response 4000

### Prompt Another molecule to look at: Cn1c(=O)c2c(ncn2CCN2CCN(C(=O)/C=C/C=C/c3ccc(O)c(O)c3)CC2)n(C)c1=O
### Response 2000

### Prompt Another molecule to look at: COc1cc(/C=C/C=C/C(=O)N2CCN(C(c3ccccc3)c3ccccc3)CC2)ccc1O
### Response 90

### Prompt Another molecule to look at: COc1cc(/C=C/C(=O)N2CCN(CCCOC(C)(c3ccccc3)c3ccc(Cl)cc3)CC2)cc(OC)c1O (stereo not shown)
### Response 10

###

Molecular target: 5-lipoxygenase (Mus musculus, UniProt P48999)
Construct: The supernatant is used as a 5-lipogenase enzyme solution; endogenous in cells
Sequence (P48999 1-674): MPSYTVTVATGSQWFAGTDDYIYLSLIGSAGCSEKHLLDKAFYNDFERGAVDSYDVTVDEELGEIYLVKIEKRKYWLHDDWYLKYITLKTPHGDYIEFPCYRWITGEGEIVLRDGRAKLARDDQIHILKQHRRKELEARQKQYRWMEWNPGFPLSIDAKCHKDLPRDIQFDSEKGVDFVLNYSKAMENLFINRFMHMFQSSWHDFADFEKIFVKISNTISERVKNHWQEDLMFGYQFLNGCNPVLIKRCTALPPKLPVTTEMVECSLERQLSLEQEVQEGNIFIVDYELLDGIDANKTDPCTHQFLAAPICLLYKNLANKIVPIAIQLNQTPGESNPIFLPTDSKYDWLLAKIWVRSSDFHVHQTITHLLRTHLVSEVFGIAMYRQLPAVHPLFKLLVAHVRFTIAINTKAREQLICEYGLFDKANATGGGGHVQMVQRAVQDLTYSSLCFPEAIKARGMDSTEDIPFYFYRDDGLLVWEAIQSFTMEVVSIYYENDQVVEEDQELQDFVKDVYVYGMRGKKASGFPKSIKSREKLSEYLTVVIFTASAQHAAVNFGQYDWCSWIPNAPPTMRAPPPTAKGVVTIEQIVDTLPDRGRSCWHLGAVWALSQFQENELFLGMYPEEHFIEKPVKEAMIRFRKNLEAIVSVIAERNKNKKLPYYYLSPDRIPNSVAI
Assay: 5-Lipoxygenase-inhibiting Activity (decrease in 5-HETE and LTB4 formed from radiolabelled arachidonic acid, enzyme solution from mouse mastcytoma cells P-815)
Assay type: biochemical
Settings: 5-HETE and LTB4 formation; mouse mastcytoma P-815 enzyme solution; 37° C., 5 min; pH 7.4; with indomethacin; read-out: 50% Inhibitory concentration IC50
Answer each item with its documented IC50.
Give the value in nM but do not write nM after it.

### Prompt Fill in: IC50 of O=C(/C=C/c1ccc(O)c(O)c1)Nc1cc(Cl)ccc1O is ___
### Response 30

### Prompt Another compound to look at: COc1cc(/C=C/C=C/C(=O)NCCN2CCN(C(c3ccccc3)c3ccc(Cl)cc3)CC2)ccc1O (stereo not shown)
### Response 60

### Prompt Another compound to look at: O=C(/C=C/C=C/c1ccc2c(c1)OCO2)NCCCN1CCN(C(c2ccccc2)c2ccccc2)CC1
### Response 2000

### Prompt Another compound to look at: CC(OCCCN1CCN(C(=O)/C=C/C=C/c2ccc(O)c(O)c2)CC1)(c1ccccc1)c1ccc(Cl)cc1 (stereo not shown)
### Response 8
